Reported inhibition values for a set of compounds
ASSAYED SYSTEM: Pantothenate synthetase (Mycobacterium tuberculosis (strain ATCC 25618 / H37Rv)) (UniProt P9WIL5)
Sequence (P9WIL5 whole entry, looked up): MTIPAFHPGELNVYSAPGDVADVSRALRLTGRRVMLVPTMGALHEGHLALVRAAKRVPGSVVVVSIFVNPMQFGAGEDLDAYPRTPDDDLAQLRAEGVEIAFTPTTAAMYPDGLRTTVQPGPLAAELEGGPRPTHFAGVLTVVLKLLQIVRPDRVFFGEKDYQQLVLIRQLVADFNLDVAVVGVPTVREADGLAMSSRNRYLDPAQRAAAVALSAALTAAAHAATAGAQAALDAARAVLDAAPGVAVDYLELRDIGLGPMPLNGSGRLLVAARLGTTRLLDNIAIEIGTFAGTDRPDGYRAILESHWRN
ASSAY TEXT: Coupled enzyme confirmation of inhibitors against recombinant Mtb PanC (AID 375);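 further: 0% = full reaction with vehicle and 100% = no enzyme background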
SETTINGS: coupled enzyme assay; at 10 µM, stronger effect = higher value
Please state the figure in %; there is no need to write the unit.

Example compounds with recorded inhibition:
• Cc1cc(=O)n(CCO)c(O)c1C#N = 0
• CCC(CCC(=O)Nc1cccc(C(=O)O)c1)C(=O)O (stereo unspecified) = 2
• COc1ccc2c(CC(=O)Nc3ccc(OC)c(NS(=O)(=O)c4ccc(F)cc4)c3)coc2c1 = 1
• CCOC(=O)c1ccc(-n2c(C)nc3c(cnn3-c3ccccc3C)c2=O)cc1 = 0
• O=S1(=O)CCC(N=Cc2cc(Br)ccc2O)C1 (stereo unspecified) = 0

Problem: Item under review: "CN(C)C(=O)CSc1nnc2sc3ccccc3n12" . Reported inhibition?
Solution: 0

Problem: Item under review: "COC(=O)c1cc(NS(=O)(=O)c2ccc3c(c2)CCC(=O)N3)cc(C(=O)OC)c1" . Reported inhibition?
Solution: 0

Problem: Item under review: "COC(=O)c1c(NC(=O)CCc2ccc(C)o2)sc(C)c1C" . Reported inhibition?
Solution: 1

Problem: Item under review: "Cc1csc(NC(=O)CSc2nnc(Cc3cccn3C)n2-c2ccc(F)cc2)n1" . Reported inhibition?
Solution: 0

Problem: Item under review: "COc1ccc(-c2nnc(SCc3nnc(-c4ccc(Cl)cc4)o3)n2-c2ccccc2)cc1" . Reported inhibition?
Solution: 0

Problem: Item under review: "O=C(Nc1ccccc1C(=O)N1CCOCC1)c1cccc(S(=O)(=O)N2CCCC2)c1" . Reported inhibition?
Solution: 0

----------
ASSAY TEXT: reduced viability of SK-BR-3 breast cancer cells – cell-based, 24 h, human, pilot screen (AID 572);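 further: compound exposure lasted between 18 and 24 h rather than exactly 24 h; 100% = carrier-treated control wells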
SETTINGS: SK-BR-3 viability, CellTiter-Glo luminescence, at 10 µM, stronger effect = lower value
Reported viability values for a set of compounds
Please state the figure in %; there is no need to write the unit.

Example compounds with recorded viability:
* Cc1ccc(S(=O)(=O)Cc2ccc(C(=O)N3CCC4(CC3)OCCO4)o2)cc1 | 75
* COC(=NC1CCCC1)C(O)c1c[nH]c2ccccc12 (configuration not stated) | 101
* CN1CC[C@@]23CCCC[C@@H]2[C@@H]1Cc1ccc(O)cc13 | 88
* C=CCn1c(O)c(C=NCCN(C)C)c(=O)[nH]c1=O | 97.5

Problem: Item under review: CC(C)OC(=O)c1c(N)n(CC2CCCO2)c2nc3ccccc3nc12 (configuration not stated) . Reported viability?
Solution: 86.5

Problem: Item under review: "CC(C)[C@H]1C(=O)N2CCC[C@H]2[C@]2(O)O[C@](NC(=O)[C@@H]3C=C4c5cccc6[nH]cc(c56)C[C@H]4N(C)C3)(C(C)C)C(=O)N12" . Reported viability?
Solution: 104

Problem: Item under review: "CN1C(=O)C(Cc2cccc3ccccc23)C(=O)N(C)C1=O" . Reported viability?
Solution: 73.5

Problem: Item under review: "CCOc1c(P(=S)(N(C)C)N(C)C)c(C)nn1-c1ccccc1" . Reported viability?
Solution: 83

Problem: Item under review: "CN1C(=O)CN=C(c2ccc(Cl)cc2)c2cc(Cl)ccc21" . Reported viability?
Solution: 84

src = PubChem BioAssay
